So I've got a bunch of compounds here, and I need their cytotoxicity (log.) values.
# System: Ovcar-3 Ovarian Carcinoma
# RUN_DESCRIPTION: Cytotoxicity (growth inhibition), Ovcar-3
# SETTINGS: ovcar-3 cells

**Query** # query: cytotoxicity (log.) of entry `COCCOC(=O)c1ccc([O-])cc1.COCCOC(=O)c1ccc([O-])cc1.[Ti+4].c1cc[cH-]c1.c1cc[cH-]c1`
**Result** -4.60 log. (M)

**Query** Please do the same for `COCCOCCOC(=O)c1ccc([O-])cc1.COCCOCCOC(=O)c1ccc([O-])cc1.[Ti+4].c1cc[cH-]c1.c1cc[cH-]c1` as well.
**Result** -4.00 log. (M)

**Query** Please do the same for `COC(=O)c1ccc([O-])cc1.COC(=O)c1ccc([O-])cc1.[Ti+4].c1cc[cH-]c1.c1cc[cH-]c1` as well.
**Result** -5.20 log. (M)

**Query** Please do the same for `CCOC(=O)c1ccc([O-])cc1.CCOC(=O)c1ccc([O-])cc1.[Ti+4].c1cc[cH-]c1.c1cc[cH-]c1` as well.
**Result** -5.20 log. (M)

**Query** Please do the same for `C[N+](C)(C)CCOC(=O)c1ccc([O-])cc1.C[N+](C)(C)CCOC(=O)c1ccc([O-])cc1.[Ti+4].c1cc[cH-]c1.c1cc[cH-]c1` as well.
**Result** -4.00 log. (M)
